- EXPERIMENTAL_SYSTEM: human TLR7 (Homo sapiens, UniProt Q9NYK1)
- Sequence (Q9NYK1 27-1049): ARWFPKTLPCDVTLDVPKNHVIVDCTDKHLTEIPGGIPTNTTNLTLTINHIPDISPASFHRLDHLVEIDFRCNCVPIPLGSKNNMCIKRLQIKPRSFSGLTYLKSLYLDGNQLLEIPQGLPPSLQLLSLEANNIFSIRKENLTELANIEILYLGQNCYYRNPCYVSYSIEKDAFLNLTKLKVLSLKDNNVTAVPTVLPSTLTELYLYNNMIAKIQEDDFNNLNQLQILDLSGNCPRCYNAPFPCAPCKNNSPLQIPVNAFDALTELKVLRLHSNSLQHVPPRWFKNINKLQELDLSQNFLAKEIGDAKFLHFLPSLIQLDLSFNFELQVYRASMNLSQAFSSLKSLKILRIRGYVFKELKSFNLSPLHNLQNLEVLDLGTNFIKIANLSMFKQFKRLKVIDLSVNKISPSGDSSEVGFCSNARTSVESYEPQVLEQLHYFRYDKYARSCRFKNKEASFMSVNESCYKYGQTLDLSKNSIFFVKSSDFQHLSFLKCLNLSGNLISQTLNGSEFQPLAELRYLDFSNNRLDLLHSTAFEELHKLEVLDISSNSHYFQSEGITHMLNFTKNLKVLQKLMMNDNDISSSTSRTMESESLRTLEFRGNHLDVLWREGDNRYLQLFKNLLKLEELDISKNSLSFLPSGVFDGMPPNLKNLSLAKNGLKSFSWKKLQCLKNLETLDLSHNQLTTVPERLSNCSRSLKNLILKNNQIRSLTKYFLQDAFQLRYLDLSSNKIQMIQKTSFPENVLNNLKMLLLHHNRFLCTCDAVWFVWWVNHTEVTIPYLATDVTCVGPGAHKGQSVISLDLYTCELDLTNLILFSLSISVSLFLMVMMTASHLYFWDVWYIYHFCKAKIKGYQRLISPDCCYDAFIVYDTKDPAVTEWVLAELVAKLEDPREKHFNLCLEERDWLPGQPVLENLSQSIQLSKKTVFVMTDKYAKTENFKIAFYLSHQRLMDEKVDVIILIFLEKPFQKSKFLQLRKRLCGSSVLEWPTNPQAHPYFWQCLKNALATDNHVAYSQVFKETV
- TEST_PROTOCOL: TLR7 inhibition reporter assay (HEK-Blue cells, SEAP reporter)
- STUDY_CONDITIONS: HEK-Blue cells overexpressing human TLR7, stimulated with gardiquimod 7.5 μM, 22 hour incubation
pIC50: −log10 of the molar value.
Param threshold (5) applies to pIC50; output t when value >= threshold, f when value < threshold.

Please review the entries below; each comes with its answer.
| COMPOUND | LABEL_VALUE |
| --- | --- |
| Cc1nc(-c2ccc(CN3CCN(CC(C)C)CC3)cc2)cc2c1cc(-c1ccc(S(C)(=O)=O)cc1)n2C | t |
| Cc1nc(-c2ccc(CN3CCN(CCC(C)(C)O)CC3)cc2)cc2c1cc(-c1ccc(S(C)(=O)=O)cc1)n2C | t |
| Cc1nc(-c2ccc(C3(O)CC4CCC(C3)N4C)c(F)c2)cc2c1cc(-c1ccc(S(C)(=O)=O)cc1)n2C (centres unmarked) | t |
| Cc1nc(-c2ccc(C3(O)CCN(C(C)C)CC3)cc2)cc2c1cc(-c1ccc(S(C)(=O)=O)cc1)n2C | t |
| Cc1nc(-c2cc(F)c(N3CCN4CCCC4C3)c(F)c2)cc2c1cc(-c1ccc(S(C)(=O)=O)cc1)n2C (centres unmarked) | t |

(Q) I'd appreciate it if you could say whether "Cc1nc(-c2ccc(C3(O)CCN(C(C)(C)C)CC3)cc2F)cc2c1cc(-c1ccc(S(C)(=O)=O)cc1)n2C" has pIC50 at least equal to 5.
(A) t

(Q) Reported pIC50 at or above 5? Cc1nc(C2CCN(C3CC4CCC(C3)N4CC(C)C)CC2)cc2c1cc(-c1ccc(S(C)(=O)=O)cc1)n2C (centres unmarked)
(A) f

(Q) Can Cc1nc(-c2cc(F)c(N3CCN4CCCC4C3)cc2F)cc2c1cc(-c1ccc(S(C)(=O)=O)cc1)n2C (centres unmarked) be said to have pIC50 at or above 5?
(A) t

(Q) State whether the measured pIC50 reaches 5, counting equality as reaching it, for "Cc1nc(-c2ccc(CN3CCN(CCC(C)(C)O)CC3)cc2)cc2c1c(F)c(-c1ccc(S(C)(=O)=O)cc1)n2C"
(A) f

(Q) Quick check: does "COCCN1CCC(O)(c2cc(F)c(-c3cc4c(cc(-c5ccc(S(C)(=O)=O)cc5)n4C)c(C)n3)cc2F)CC1" have pIC50 greater than or equal to 5?
(A) t

(Q) Is the recorded value of pIC50 equal to or greater than 5 for this compound? "COc1ccc(-c2cc3cnc(C4CCN(Cc5ccc(C)nc5)CC4)cc3n2C)cc1OC"
(A) t

(Q) Say whether "COc1ccc(-c2c(C)[nH]c3cnc(C4CCN(C5CCN(C(=O)C(C)C)CC5)CC4)cc23)cc1OC" shows pIC50 of 5 or more.
(A) f
